Tested on: bloodstream form T. brucei brucei
Experiment: T. b. brucei whole cell parasite (trypanosome growth) assay
Type: cell-based, Trypanosoma brucei brucei
Settings: Trypanosoma brucei, mean of two or more determinations; 69 h + 4 h resazurin; read-out: T. b. brucei EC50
pEC50: −log10 of the molar value.
Mark Fulfilled for reported pEC50 of 6 or greater; mark Not fulfilled for anything smaller.

compound	label
CC(C)Oc1ccc(C(=O)N2c3ccccc3CC2C(N)=O)cc1 (stereo not drawn)	Not fulfilled
CNC(=O)C1Cc2cc(F)ccc2N1C(=O)COc1ccc(Cl)cc1 (stereo not drawn)	Fulfilled
CNC(=O)C1Cc2cc(-c3ccccc3)ccc2N1C(=O)COc1ccc(F)cc1 (stereo not drawn)	Fulfilled
CNC(=O)C1Cc2cc(-c3ccncc3)ccc2N1C(=O)COc1ccc(F)cc1 (stereo not drawn)	Fulfilled
CNC(=O)C1Cc2ccccc2N1C(=O)COc1ccc(Cl)c(F)c1 (stereo not drawn)	Fulfilled
CNC(=O)C1Cc2ccccc2N1C(=O)Cc1ccc(F)cc1 (stereo not drawn)	Fulfilled
CCNC(=O)C1Cc2ccccc2N1C(=O)COc1cccc(C)c1 (stereo not drawn)	Fulfilled
CNC(=O)C1Cc2ccccc2N1C(=O)COc1ccc(F)cc1 (stereo not drawn)	Fulfilled
CNC(=O)[C@H]1Cc2ccccc2N1C(=O)COc1ccc(F)c(F)c1	Fulfilled
CNC(=O)C1Cc2ccccc2N1C(=O)Cc1ccc(F)cc1F (stereo not drawn)	Not fulfilled

----------
Test: Microsomal intrinsic clearance (Clint), mouse
Type: in vitro ADME
Conditions: mouse liver microsomes, 0.5 μM compound
quantity.measured: mouse microsomal intrinsic clearance (mL min^–1 g^–1)

compound	measured.number
CNC(=O)C1Cc2cc(F)c(F)cc2N1C(=O)COc1ccc(F)cc1 (stereo not drawn)	2.0
CNC(=O)C1Cc2ccccc2N1C(=O)Cc1ccc(C(F)(F)F)cc1 (stereo not drawn)	3.0
CNC(=O)C1Cc2ccccc2N1C(=O)Cc1ccc(F)cc1F (stereo not drawn)	0.5
CNC(=O)[C@H]1Cc2ccccc2N1C(=O)COc1ccc(F)cc1	1.2
CNC(=O)C1Cc2cc(F)ccc2N1C(=O)COc1ccc(F)cc1 (stereo not drawn)	1.3
CNC(=O)C1Cc2ccccc2N1C(=O)Cc1ccc(Cl)cc1 (stereo not drawn)	4.4
CNC(=O)C1Cc2ccccc2N1C(=O)Cc1ccc(F)c(F)c1 (stereo not drawn)	1.9
O=C(NC1CC1)C1Cc2ccccc2N1C(=O)COc1ccc(Cl)cc1 (stereo not drawn)	5.5
CNC(=O)C1Cc2ccccc2N1C(=O)Cc1cccc2ccccc12 (stereo not drawn)	28

Every entry's value here was drawn from paper PMC4601051.
